Tested on: lymphocytic leukemia P388
Assay: In vivo antitumor activity against P388 leukemia in mice
Settings: P388, female CDF1 mice, 10 mg/kg/day, Q1Dx3 ip
Description: In vivo antitumor activity of the above fifteen derivatives was tested in the lymphocytic leukemia P388 and melanoma B16 systems. Female CDF₁ (for P388) and male BDF₁ (for B16) mice were inoculated by ip injection at 10⁶ P388 cells and 0.5 ml of a 10% B16 brei per mouse, respectively (day 0). […] The percent increase of median survival time (MST) of treated animals over that of untreated control animals was determined and reported as T/C %. […]
Here the recorded T/C % of MST is given for each entry.
The figure you give is taken to be in %; do not add the unit.

For orientation, consider the following solved cases.
1) COC1C(N)C(OC2C(Oc3cccc4c(OCCCN)c5c(=O)oc6ccc(C)c7c(=O)oc(c34)c5c67)OC(C)C3OC(C)(C)OC32C)OC(C)C1O (centres unmarked): 135
2) COC1C(N)C(OC2C(Oc3cccc4c(OCCCN5C(=O)c6ccccc6C5=O)c5c(=O)oc6ccc(C)c7c(=O)oc(c34)c5c67)OC(C)C(O)C2(C)O)OC(C)C1O (centres unmarked): 140
3) CCCCCCCCCCOc1c2cccc(OC3OC(C)C(O)C(C)(O)C3OC3OC(C)C(O)C(OC)C3N)c2c2oc(=O)c3c(C)ccc4oc(=O)c1c2c43 (centres unmarked): 100
4) CCCCCCOc1c2cccc(OC3OC(C)C(O)C(C)(O)C3OC3OC(C)C(O)C(OC)C3N)c2c2oc(=O)c3c(C)ccc4oc(=O)c1c2c43 (centres unmarked): 140

Please turn your attention to the following entry.
What value of measured T/C % of MST is listed for CCCCCCCCCCOc1c2cccc(OC3OC(C)C4OC(C)(C)OC4(C)C3OC3OC(C)C(O)C(OC)C3N)c2c2oc(=O)c3c(C)ccc4oc(=O)c1c2c43 (centres unmarked) ?
100

----------
Tested on: murine melanoma B16-F10 cells
Experiment: In vitro cytotoxicity, neutral red staining after 72 hours
Details: 72 hours incubation
Rule: measured Cytotoxicity IC50 below 0.05 µg/mL gets True; anything equal to or greater than 0.05 µg/mL gets False.

1) COC1C(N)C(OC2C(Oc3cccc4c(OC(C)C)c5c(=O)oc6ccc(C)c7c(=O)oc(c34)c5c67)OC(C)C(O)C2(C)O)OC(C)C1O (centres unmarked): False
2) CCCCOc1c2cccc(OC3OC(C)C(O)C(C)(O)C3OC3OC(C)C(O)C(OC)C3N)c2c2oc(=O)c3c(C)ccc4oc(=O)c1c2c43 (centres unmarked): True
3) CCCCCCOc1c2cccc(OC3OC(C)C4OC(C)(C)OC4(C)C3OC3OC(C)C(O)C(OC)C3N)c2c2oc(=O)c3c(C)ccc4oc(=O)c1c2c43 (centres unmarked): False

Please turn your attention to the following entry.
Here's an entry: CCOc1c2cccc(OC3OC(C)C(O)C(C)(O)C3OC3OC(C)C(O)C(OC)C3N)c2c2oc(=O)c3c(C)ccc4oc(=O)c1c2c43 (centres unmarked) . Is its Cytotoxicity IC50 below 0.05 µg/mL?
False

----------
System: murine melanoma B16-F10 cells
Experiment: In vitro cytotoxicity, neutral red staining after 72 hours
Conditions: 72 hours incubation
measurement label: Cytotoxicity IC50 (µg/mL)
// note: answer is a bare numeric in µg/mL

1. COC1C(N)C(OC2C(Oc3cccc4c(OCCCN5C(=O)c6ccccc6C5=O)c5c(=O)oc6ccc(C)c7c(=O)oc(c34)c5c67)OC(C)C(O)C2(C)O)OC(C)C1O (stereo not drawn): 0.71
2. CCCCCCCCCCOc1c2cccc(OC3OC(C)C4OC(C)(C)OC4(C)C3OC3OC(C)C(O)C(OC)C3N)c2c2oc(=O)c3c(C)ccc4oc(=O)c1c2c43 (stereo not drawn): 2.9

Okay, next one:
Fill blank: measured Cytotoxicity IC50 of the compound COC1C(N)C(OC2C(Oc3cccc4c(OCCCN5C(=O)c6ccccc6C5=O)c5c(=O)oc6ccc(C)c7c(=O)oc(c34)c5c67)OC(C)C3OC(C)(C)OC32C)OC(C)C1O (stereo not drawn) is ____.
0.4
